Attribution: patent US4386073A

- System: Reserpine hypothermy
- assay_remarks: Reserpine hypothermy-reversing effect on mice
- Assay type: in vivo
- particulars: 2 hours after 20 mg/kg of the tripeptide, average of 10 animals
- Experimental: (3) Reserpine hypothermy-reversing effect on mice (see B. M. Askew: Life Sci. 2, 725-730/1963/) The tests were performed on groups of 10 male mice each, weighing 18 to 22 g. […] The rectal temperature of the animals was measured prior to the administration of reserpine (marked by "norm." in Table 1), 16 hours after the administration of reserpine (marked by "res." in Table 1), furthermore 1 and 2 hours after the administration of the tripeptide (marked by "obs.time" in Table 1). […]
Where a SMILES comes first, the peptide text is derived from it. [ ]: non-standard residue; d: D form. d(pGlu) = O=C1CC[C@H](C(=O)O)N1
# t = Reserpine hypothermy reversing effect, rectal temperature obs. time 2 h below 30 °C (exclusive); f = Reserpine hypothermy reversing effect, rectal temperature obs. time 2 h at/above 30 °C

>  <molecule>
CC(C)C[C@H](NC(=O)C1CCCC(=O)N1)C(=O)N1CCC[C@H]1C(N)=O (some centres unmarked)

>  <label_class>
f

$$$$
>  <molecule>
CC(C)C[C@H](NC(=O)C1CNC(=O)N1)C(=O)N1CCC[C@H]1C(N)=O (some centres unmarked)

>  <label_class>
t

$$$$
>  <molecule>
CCC[C@H](NC(=O)C1CCCC(=O)N1)C(=O)N1CCC[C@H]1C(N)=O (some centres unmarked)

>  <label_class>
f

$$$$
>  <molecule>
CCC[C@H](NC(=O)C1CCCC(=O)N1)C(=O)N1CCCC[C@H]1C(N)=O (some centres unmarked)

>  <label_class>
f

$$$$
>  <molecule>
CC(C)C[C@H](NC(=O)[C@H]1CCC(=O)N1)C(=O)N1CCC[C@H]1C(N)=O [D-Glp Leu Pro, D-Pyroglutamyl-L-leucyl-L-prolinamide] ([d(pGlu)]-Leu-Pro-NH2)

>  <label_class>
t

$$$$

====

- Test system: L-Dopa-induced locomotive activity
- assay_remarks: Potentiation of locomotive activity induced on mice by L-Dopa
- Format: in vivo
- particulars: compound 20 mg/kg i.p., 90 min, percent related to TRH
Where a SMILES comes first, the peptide text is derived from it. [ ]: non-standard residue; d: D form. d(pGlu) = O=C1CC[C@H](C(=O)O)N1
assay_readout: Potentiation of the locomotive effect of L-Dopa, % after 90' (%)

>  <compound>
CC(C)C[C@H](NC(=O)C1CCCC(=O)N1)C(=O)N1CCC[C@H]1C(N)=O (some centres unmarked) [Kpc Leu Pro]

>  <meas_value>
127

$$$$
>  <compound>
CC(C)C[C@H](NC(=O)C1CNC(=O)N1)C(=O)N1CCC[C@H]1C(N)=O (some centres unmarked) [Kic Leu Pro]

>  <meas_value>
98

$$$$
>  <compound>
CCC[C@H](NC(=O)C1CCCC(=O)N1)C(=O)N1CCC[C@H]1C(N)=O (some centres unmarked) [Kpc Nva Pro]

>  <meas_value>
65

$$$$
>  <compound>
CC(C)C[C@H](NC(=O)[C@H]1CCC(=O)N1)C(=O)N1CCC[C@H]1C(N)=O [D-Glp Leu Pro, D-Pyroglutamyl-L-leucyl-L-prolinamide] ([d(pGlu)]-Leu-Pro-NH2)

>  <meas_value>
115

$$$$
>  <compound>
NC(=O)[C@@H]1CCCN1C(=O)[C@H](Cc1c[nH]cn1)NC(=O)[C@@H]1CCC(=O)N1 [TRH, L-pyroglutamyl-L-histidyl-L-prolinamide, reference compound]

>  <meas_value>
100

$$$$
